Numbers sourced from ChEMBL document CHEMBL4428133.

Target: Tyrosyl-DNA phosphodiesterase 2 (Homo sapiens, UniProt O95551)
Sequence (O95551 whole entry): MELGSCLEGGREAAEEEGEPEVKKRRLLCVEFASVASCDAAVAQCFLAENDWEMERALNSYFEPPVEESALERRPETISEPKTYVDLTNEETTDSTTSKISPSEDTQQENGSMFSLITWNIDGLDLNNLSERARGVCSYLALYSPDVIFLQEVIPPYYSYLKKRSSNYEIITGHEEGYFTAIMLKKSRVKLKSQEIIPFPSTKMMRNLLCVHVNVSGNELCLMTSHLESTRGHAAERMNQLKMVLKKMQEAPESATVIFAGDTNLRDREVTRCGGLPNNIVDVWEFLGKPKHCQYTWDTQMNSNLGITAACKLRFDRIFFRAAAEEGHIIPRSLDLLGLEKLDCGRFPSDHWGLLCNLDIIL
Experiment: Inhibition of TDP2 (unknown origin)
ENDPOINT NAME: IC50 (nM)
Give bare numbers, in nM.

Please give the measured IC50 for this molecule: NC1=CC(N)=C2C=CC(=O)N=C2C1=O
2000
